conditions: 120 K; 101.33 kPa; Crystal; relaxation calorimetry
assay.metric: molar entropy (J/K/mol)

O[C@H]1[C@H](O)[C@@H](O)[C@H](O)[C@@H](O)[C@H]1O [cis-1,2,3,5-trans-4,6-cyclohexanehexol] ... 68.23
OC[C@@H](O)C(O)[C@H](O)CO [D-arabitol] ... 73.87
OC[C@H](O)C(O)[C@@H](O)CO [L-(-)-arabitol] ... 74.44
OC[C@@H](O)[C@H](O)[C@@H](O)CO [xylitol] ... 70.74
OC[C@@H](O)[C@@H](O)CO [meso-1,2,3,4-butanetetrol] ... 62.43
OC[C@@H](O)[C@@H](O)[C@H](O)[C@H](O)CO [D-mannitol] ... 83.84

###

Each entry below carries its recorded molar heat capacity at constant pressure.
test: molar heat capacity at constant pressure; conditions: 343.15 K; 101.33 kPa; Crystal; Small sample (50 mg) DSC
assay.metric: molar heat capacity at constant pressure (J/K/mol)

OC[C@@H](O)C(O)[C@H](O)CO ... 244.65
OC[C@@H](O)[C@@H](O)CO ... 191.56
OC[C@@H](O)[C@@H](O)[C@H](O)[C@H](O)CO ... 270.04
O[C@H]1[C@H](O)[C@@H](O)[C@H](O)[C@@H](O)[C@H]1O [cis-1,2,3,5-trans-4,6-cyclohexanehexol] ... 257.08
OC[C@@H](O)[C@H](O)[C@@H](O)CO ... 247.9

###

conditions: 110 K; 101.33 kPa; Crystal; relaxation calorimetry
Each entry below carries its recorded molar entropy.
assay.metric: molar entropy (J/K/mol)

O[C@H]1[C@H](O)[C@@H](O)[C@H](O)[C@@H](O)[C@H]1O [cis-1,2,3,5-trans-4,6-cyclohexanehexol] ... 61.01
OC[C@H](O)C(O)[C@@H](O)CO [L-(-)-arabitol] ... 66.69
OC[C@@H](O)[C@H](O)[C@@H](O)CO [xylitol] ... 63.13
OC[C@@H](O)[C@@H](O)CO [meso-1,2,3,4-butanetetrol] ... 56.17
OC[C@@H](O)C(O)[C@H](O)CO [D-arabitol] ... 66.18
OC[C@@H](O)[C@@H](O)[C@H](O)[C@H](O)CO [D-mannitol] ... 75.17

###

Each entry below carries its recorded molar heat capacity at constant pressure.
assay: molar heat capacity at constant pressure; conditions: 170 K; 101.33 kPa; Crystal; relaxation calorimetry
Numbers after ± are expanded uncertainties.
assay.metric: molar heat capacity at constant pressure

OC[C@@H](O)C(O)[C@H](O)CO ... 123.02 ± 7.5 J/K/mol
OC[C@@H](O)[C@@H](O)[C@H](O)[C@H](O)CO ... 139.33 ± 8.5 J/K/mol
OC[C@@H](O)[C@@H](O)CO ... 100.41 ± 6.2 J/K/mol
OC[C@@H](O)[C@H](O)[C@@H](O)CO ... 123.79 ± 7.6 J/K/mol
O[C@H]1[C@H](O)[C@@H](O)[C@H](O)[C@@H](O)[C@H]1O [cis-1,2,3,5-trans-4,6-cyclohexanehexol] ... 124.22 ± 7.6 J/K/mol
OC[C@H](O)C(O)[C@@H](O)CO [L-(-)-arabitol] ... 124.19 ± 7.6 J/K/mol

###

experiment: molar heat capacity at constant pressure; conditions: 282.15 K; 101.33 kPa; Crystal; Small sample (50 mg) DSC
Each entry below carries its recorded molar heat capacity at constant pressure.
assay.metric: molar heat capacity at constant pressure (J/K/mol)

OC[C@@H](O)[C@H](O)[C@@H](O)CO ... 197.52
OC[C@@H](O)C(O)[C@H](O)CO ... 189.61
O[C@H]1[C@H](O)[C@@H](O)[C@H](O)[C@@H](O)[C@H]1O [cis-1,2,3,5-trans-4,6-cyclohexanehexol] ... 205.45
OC[C@@H](O)[C@@H](O)[C@H](O)[C@H](O)CO ... 218.34
OC[C@H](O)C(O)[C@@H](O)CO [L-(-)-arabitol] ... 196.47
OC[C@@H](O)[C@@H](O)CO ... 155.77
